Can you tell me melting point for the items I'm about to list?

For orientation, consider the following solved cases.
{"compound": "CC(C)n1nc(-c2c(OCC(N)=O)nc(N)nc2-c2ccccc2)ccc1=O", "melting point": "257 to 261 °C"}
{"compound": "CNC(=O)CNC(=O)c1ccc(C)c(-n2c(C)cc(OCc3ccccc3CNC(=O)Nc3cc(C(C)(C)C)nn3-c3ccc(Cl)c(O)c3)c(Cl)c2=O)c1", "melting point": "179 to 181 °C"}
{"compound": "CCc1c(NC(=O)c2ccc(Br)cc2)ccc2cc(CN3CCCC3)cnc12", "melting point": "230 to 231 °C"}
{"compound": "CCCCNCCC(=O)Nc1ccc2c(c1)C(=O)c1cc(NC(=O)CCNCCCC)ccc1C2=O", "melting point": "168 °C"}
{"compound": "CN1COC(CC23CCC(c4ccccc42)c2ccccc23)C1 (stereo not given)", "melting point": "106 to 109 °C"}

// each listed compound needs a value for melting point
1. NC(=S)c1c(F)c(F)c(F)c(F)c1F
2. COc1ccc(-c2[nH]c3ccccc3c(=O)c2Cc2ccncc2)cc1
3. Cc1cccc(C)c1N(Cn1cncn1)C(=O)CCl

1. 92 to 93 °C
2. 246 to 248 °C
3. 115 to 118 °C

// each listed compound needs a value for melting point
1. CC(=O)OC1CSC(Oc2ccc(-c3ccnc(F)c3)nc2)C(OC(C)=O)C1OC(C)=O (stereo not given)
2. O=C(O)c1cc(Br)cc2c1NCCC2C(=O)O (stereo not given)
3. Cc1c(C)c2c(c(C)c1O)C(c1ccc(C(C)C)cc1)C1(CCN(C)CC1)O2 (stereo not given)
4. COc1ccc2c(ccn2CC2(c3ccccc3Br)OCCO2)n1
5. C[C@@H](n1ncn(-c2ccc(-n3ccnn3)cc2)c1=O)[C@](O)(Cn1cncn1)c1ccc(F)cc1F
6. Cc1cc(Oc2ccc([N+](=O)[O-])cc2)c2ncccc2c1
7. Cc1c2c3c(nc(N)c2nn1C)CCCC3
8. Cc1oc(-c2ccccc2)nc1COc1ccc(CCCO)cc1

179 °C
238 to 239 °C
114 to 117 °C
143 to 144 °C
219 to 220 °C
143 °C
258 to 259 °C
70 to 71 °C

// each listed compound needs a value for melting point
1. Cc1cccc(NC(=O)NC2N=C(c3ccccc3F)c3ccccc3N(CCC3OCCO3)C2=O)c1 (racemic)
2. COc1ccc(CCc2cc3c(s2)-n2c(C)nnc2CN=C3c2ccccc2Cl)cc1
3. Cc1nnc2n1-c1ccc(I)cc1C(c1ccccc1F)=NC2
4. COc1ccc2c(c1)c(C1CCN(Cc3ccc(OC)c(C(=O)O)c3)CC1)cn2CCc1ccsc1
5. COc1cc(C#N)ccc1-c1cc(-c2cc(C#N)ccc2OC)on1

1: 214 to 215 °C; 2: 100 to 105 °C; 3: 235 to 238 °C; 4: 229 to 230 °C; 5: 271 to 273 °C

// each listed compound needs a value for melting point
1. CCOC(=O)C1=C(C)NC(C)=C(C(=O)OCCOC)C1c1cccc(Cl)c1Cl (stereo not given)
2. OCCNc1cc(Nc2ccc(Nc3ccccc3)cc2)ncn1
3. CCc1cc(OC)c(N)c2ccccc12
4. COc1ccc(Cl)c(C)c1OC

139 °C
154 to 155 °C
80 °C
69 to 70 °C

// each listed compound needs a value for melting point
1. CCOC(=O)c1c(C)nc(-c2ccccc2)nc1-c1cc([N+](=O)[O-])ccc1S(C)=O (stereo not given)
2. CN1c2ccc(C=C(c3ccccc3)c3ccccc3)cc2S(=O)(=O)c2cc(C=C(c3ccccc3)c3ccccc3)ccc21
3. COC1(c2ccc(C#Cc3cc(F)cc(F)c3NC(=O)C(C)(C)C)cc2)CCOCC1

["130 to 132 °C", "246 to 252 °C", "77 to 79 °C"]

// each listed compound needs a value for melting point
1. COc1ccc(C#CCCCCOc2ccc(C(=O)c3cccc(C(=O)O)c3)cc2CCC(=O)O)cc1
2. CCCCCN1C(=O)C(c2ccc3c(c2)OCO3)c2cccnc21 (stereo not given)
3. CC(C)(C)OC(=O)c1ccc[nH]1
4. CCSc1cc2ncc(C#N)c(Nc3cc(OC)c(Cl)cc3Cl)c2cc1OC
5. CC(C)S(=O)(=O)c1nc(OS(C)(=O)=O)cs1
6. O=C(CCCOc1ccc2nc3[nH]c(=O)[nH]c3cc2c1)N1CCN(c2ccccc2)CC1
7. O=C(O)C(c1ccc2c(c1)OCO2)n1nc(-c2ccccn2)ccc1=O (stereo not given)

1: 144 to 146 °C; 2: 75 to 77 °C; 3: 87 to 89 °C; 4: 212 to 214 °C; 5: 56.5 to 58.5 °C; 6: 277 to 279 °C; 7: 115 °C
